test: qHTS assay to identify small molecule HDAC inhibitors (AID 1259364); conditions: HCT-116 HDAC-Glo I/II luminescence, 2 h; series mostly up to 92.4 µM;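 note: wild-type HCT-116 cells with endogenous class I/II HDAC activity; top concentration of the series differs between compounds; % is set by controls: 0 for no effect and ±100 for the full control effect; nearly all actives have a fitted effect of over 45% in size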
Inconclusive results are not listed. Activity calls are given as the source filed them. Calls come from the whole dose curve; as a rule, active = well fitted inhibition curve with a large enough effect in the repeat runs; inconclusive = weak or mixed curves; inactive = flat fitted curve, though single readings scatter.
REPORTED_PROPERTY: activity change, negative = inhibition

C[C@]12C=CC(=O)C=C1CC[C@@H]1[C@@H]2CC[C@@]2(C)[C@H]1CC[C@]2(C)O :: inactive
CNC(=O)NC(O)C(Cl)(Cl)Cl (stereo not drawn) :: inactive
CCN[C@H](C)Cc1cccc(C(F)(F)F)c1 :: inactive
Brc1c(Br)c(Br)c(Br)c(Br)c1Br :: 4.51% [at 8.39 µM] (inactive)
Clc1cc2c(cc1Cl)Oc1cc(Cl)c(Cl)cc1O2 :: 0.908% [at 0.349 µM] (inactive)

Take each entry in turn and give its activity change, negative = inhibition.
1. CCC1(CC)C(=O)C=CNC1=O
2. CCN(CC)CCOC(=O)C(O)(c1ccccc1)c1ccccc1
3. CC(C)c1ccc(O)cc1
4. CC(C)[C@]12CC(=O)[C@H](C)[C@H]1C2
5. CC(Cc1ccccc1)NCCn1cnc2c1c(=O)n(C)c(=O)n2C (stereo not drawn)

Completion:
1. inactive
2. inactive
3. inactive
4. inactive
5. inactive

Provenance of the data: PubChem BioAssay (Tox21)
